Molecular target: Human immunodeficiency virus type 1 reverse transcriptase (Human immunodeficiency virus 1)
Test: Inhibition of HIV-1 wild type recombinant reverse transcriptase p66/p51 assessed as RNA-DNA heteroduplex formation using poly(rA) template/oligo(dT)16 primer incubated prior to enzyme addition by spectrofluorometer analysis
readout: pIC50
Reminder that pIC50 means the negative base-10 logarithm of the concentration expressed in mol/L.

Below, each entry is followed by its recorded pIC50 result.
compound	pIC50
COc1ccc(CSc2nc(C(C#N)c3ccccc3Cl)c(C)c(=O)[nH]2)cc1 (centres undefined)	6.29
COc1ccc(CSc2nc(C(C#N)c3c(F)cccc3Cl)c(C)c(=O)[nH]2)cc1 (centres undefined)	6.77

Input line: Could you share which pIC50 value was measured for COc1ccc(CSc2nc(C(C#N)c3c(Cl)cccc3Cl)c(C)c(=O)[nH]2)cc1 (centres undefined) ?
Output line: 6.64

Input line: Next compound up: COc1ccc(CSc2nc(C(C#N)c3ccccc3Br)c(C)c(=O)[nH]2)cc1 (centres undefined)
Output line: 5.81

----------
Experiment: Selectivity index, ratio of CC50 for human MT4 cells to EC50 for wild-type HIV-1 3B infected in human MT4 cells
Format: toxicity, cell-based
Settings: read-out: Ratio CC50/EC50
readout: selectivity ratio
Write no unit; give the number alone.

Below, each entry is followed by its recorded selectivity ratio result.
compound	selectivity ratio
COc1ccc(CSc2nc(C(C#N)c3ccc(F)cc3)c(C(C)C)c(=O)[nH]2)cc1 (stereo not drawn)	7
COc1ccc(CSc2nc(C(C#N)c3cccc(F)c3)c(C)c(=O)[nH]2)cc1 (stereo not drawn)	6
COc1ccc(CSc2nc(C(C#N)c3ccccc3Br)c(C)c(=O)[nH]2)cc1 (stereo not drawn)	208
COc1ccc(CSc2nc(C(C#N)c3ccccc3Br)c(C(C)C)c(=O)[nH]2)cc1 (stereo not drawn)	6
CCc1c(C(C#N)c2cccc(F)c2)nc(SCc2ccc(OC)cc2)[nH]c1=O (stereo not drawn)	24
CCc1c(C(C#N)c2ccccc2F)nc(SCc2ccc(OC)cc2)[nH]c1=O (stereo not drawn)	66

Input line: Could you share which selectivity ratio value was measured for COc1ccc(CSc2nc(C(C#N)c3ccc(F)cc3F)c(C)c(=O)[nH]2)cc1 (stereo not drawn) ?
Output line: 8

----------
In this section we review reported pEC50 values for a set of compounds.
Tested on: Human immunodeficiency virus 1
Assay: Antiviral activity against HIV-1 RES056 harboring RT K103N+Y181C double mutant infected in human MT4 cells assessed as protection against virus-induced cytopathic effect measured 5 days post-infection by MTT assay
Format: functional, organism-based
Details: Human immunodeficiency virus 1, RES056, MT4, 120 h
pEC50: −log10 of the molar value.

Input line: Could you share which pEC50 value was measured for COc1ccc(CSc2nc(C(C#N)c3ccccc3Br)c(C)c(=O)[nH]2)cc1 (stereo not given) ?
Output line: < 4.06

Input line: Next compound up: COc1ccc(CSc2nc(C(C#N)c3cccc(Cl)c3)c(C)c(=O)[nH]2)cc1 (stereo not given)
Output line: < 3.79

Input line: Next compound up: COc1ccc(CSc2nc(C(C#N)c3ccc(F)cc3F)c(C)c(=O)[nH]2)cc1 (stereo not given)
Output line: < 3.80

Input line: Next compound up: COc1ccc(CSc2nc(C(C#N)c3cccc(Br)c3)c(C(C)C)c(=O)[nH]2)cc1 (stereo not given)
Output line: < 3.93

Input line: Next compound up: COc1ccc(CSc2nc(C(C#N)c3cccc(F)c3)c(C)c(=O)[nH]2)cc1 (stereo not given)
Output line: < 3.76

----------
In this section we review reported selectivity ratio values for a set of compounds.
Experiment: Selectivity index, ratio of CC50 for human MT4 cells to EC50 for wild-type HIV-1 3B infected in human MT4 cells
Assay type: toxicity, cell-based
Details: read-out: Ratio CC50/EC50

Below, each entry is followed by its recorded selectivity ratio result.
compound	selectivity ratio
CCc1c(C(C#N)c2ccc(Br)cc2)nc(SCc2ccc(OC)cc2)[nH]c1=O (stereo unspecified)	< 1
COc1ccc(CSc2nc(C(C#N)c3ccc(Cl)cc3)c(C(C)C)c(=O)[nH]2)cc1 (stereo unspecified)	≤ 2
Cc1cn([C@H]2C[C@H](N=[N+]=[N-])[C@@H](CO)O2)c(=O)[nH]c1=O [ZIDOVUDINE]	> 14400

Input line: Could you share which selectivity ratio value was measured for Nc1ccn([C@H]2CC[C@@H](CO)O2)c(=O)n1 [ZALCITABINE] ?
Output line: > 169

Input line: Next compound up: COc1ccc(CSc2nc(C(C#N)c3ccc(Br)cc3F)c(C)c(=O)[nH]2)cc1 (stereo unspecified)
Output line: < 1

Input line: Next compound up: COc1ccc(CSc2nc(C(C#N)c3ccc(Cl)cc3)c(C)c(=O)[nH]2)cc1 (stereo unspecified)
Output line: < 1

Ref: ChEMBL document CHEMBL3132784
